Each recorded value in this set is attributed to patent US12692238B2.

System: goosegrass (Eleusine indica)
Test: Test A postemergence, goosegrass
Assay type: in vivo
Settings: Postemergence, 125 g ai/ha; 0 to 100 scale, 10 days
Rule: Plant response rating, Goosegrass below 30 gives satisfied, anything at or above gives not satisfied.

The following molecules have reported results that may help.
>>> class("Cc1ccc2cc3ccc(F)cc3c(-c3c(OCOC(=O)OC(C)C)c(C)nn(C)c3=O)c2c1")
"not satisfied"
>>> class("Cc1ccc2cc3ccc(C)cc3c(-c3c(OCOC(=O)N(C)C)c(Cl)nn(C)c3=O)c2c1")
"satisfied"
>>> class("Cn1nc(Cl)c(OCOC(=O)C(C)(C)C)c(-c2c3ccccc3cc3ccccc23)c1=O")
"satisfied"
>>> class("COC(=O)OCOc1c(Cl)nn(C)c(=O)c1-c1c2cc(C)ccc2cc2ccc(C)cc12")
"satisfied"
>>> class("Cc1ccc2cc3ccc(F)cc3c(-c3c(OCOC(=O)N(C)C)c(C)nn(C)c3=O)c2c1")
"satisfied"

Is Plant response rating, Goosegrass of "COC(=O)OCOc1c(C)nn(C)c(=O)c1-c1c2cc(C)ccc2cc2ccc(F)cc12" strictly below 30?
not satisfied
